biological target: recombinant homotrimeric HA A/Indonesia/5/05 H5N1 (Influenza A virus A/Indonesia/5/2005(H5N1)); assay: protein microarray, purified IgG, trimeric HA; conditions: remark: other sources report otherwise
observation type: Trimeric HA Binding: RLU

{"binder": "TCN-545 (5082_I15) (antibody, V domains shown) VH: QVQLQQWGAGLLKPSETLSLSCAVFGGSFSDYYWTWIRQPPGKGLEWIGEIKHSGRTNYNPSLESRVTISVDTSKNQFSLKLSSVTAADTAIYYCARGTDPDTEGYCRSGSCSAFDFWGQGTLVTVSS VL: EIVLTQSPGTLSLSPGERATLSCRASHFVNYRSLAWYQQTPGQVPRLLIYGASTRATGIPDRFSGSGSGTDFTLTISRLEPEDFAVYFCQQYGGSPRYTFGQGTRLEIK", "observation type": "Trimeric HA Binding: RLU", "assay result": "193 RLU"}
{"binder": "TCN-552 (5249_I23) (antibody, V domains shown) VH: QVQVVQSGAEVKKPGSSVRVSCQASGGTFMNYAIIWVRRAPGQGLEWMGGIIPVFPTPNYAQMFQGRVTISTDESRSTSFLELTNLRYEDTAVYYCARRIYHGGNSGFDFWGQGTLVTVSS VL: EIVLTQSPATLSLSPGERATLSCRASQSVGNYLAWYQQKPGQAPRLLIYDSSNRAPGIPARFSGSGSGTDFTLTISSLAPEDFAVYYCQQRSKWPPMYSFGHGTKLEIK", "observation type": "Trimeric HA Binding: RLU", "assay result": "23600 RLU"}
{"binder": "TCN-538 (3206_O17) (antibody, V domains shown) VH: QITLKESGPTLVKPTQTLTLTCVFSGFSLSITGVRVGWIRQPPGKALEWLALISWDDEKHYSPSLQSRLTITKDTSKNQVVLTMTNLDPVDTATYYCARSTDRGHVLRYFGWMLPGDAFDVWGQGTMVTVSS VL: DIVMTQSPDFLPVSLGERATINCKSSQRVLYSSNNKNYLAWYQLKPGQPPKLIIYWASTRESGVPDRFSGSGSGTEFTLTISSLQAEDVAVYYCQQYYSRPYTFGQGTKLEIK", "observation type": "Trimeric HA Binding: RLU", "assay result": "7450 RLU"}
{"binder": "TCN-530 (5248_H10a) (antibody, V domains shown) VH: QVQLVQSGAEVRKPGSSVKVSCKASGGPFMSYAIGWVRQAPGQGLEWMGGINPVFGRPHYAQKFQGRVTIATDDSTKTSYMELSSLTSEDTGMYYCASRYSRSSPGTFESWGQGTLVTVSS VL: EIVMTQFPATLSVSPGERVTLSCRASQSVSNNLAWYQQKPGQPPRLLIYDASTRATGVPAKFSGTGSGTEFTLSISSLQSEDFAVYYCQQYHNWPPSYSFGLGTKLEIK", "observation type": "Trimeric HA Binding: RLU", "assay result": "10900 RLU"}
{"binder": "TCN-522 (3212_I12) (antibody, V domains shown) VH: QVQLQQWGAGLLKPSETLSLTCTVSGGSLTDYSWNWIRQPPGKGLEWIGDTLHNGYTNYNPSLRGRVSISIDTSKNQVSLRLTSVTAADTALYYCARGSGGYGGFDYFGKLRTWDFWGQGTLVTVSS VL: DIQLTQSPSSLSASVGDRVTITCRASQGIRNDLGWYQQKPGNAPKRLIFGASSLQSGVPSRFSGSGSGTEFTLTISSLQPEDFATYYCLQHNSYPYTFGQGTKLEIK", "observation type": "Trimeric HA Binding: RLU", "assay result": "12500 RLU"}
{"binder": "TCN-557 (5081_A04) (antibody, V domains shown) VH: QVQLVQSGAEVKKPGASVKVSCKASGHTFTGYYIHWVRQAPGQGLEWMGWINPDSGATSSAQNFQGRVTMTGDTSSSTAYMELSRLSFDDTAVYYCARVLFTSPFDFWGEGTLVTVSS VL: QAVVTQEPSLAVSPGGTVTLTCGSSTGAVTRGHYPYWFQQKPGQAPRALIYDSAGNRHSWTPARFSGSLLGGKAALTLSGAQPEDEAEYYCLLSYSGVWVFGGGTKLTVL", "observation type": "Trimeric HA Binding: RLU", "assay result": "23300 RLU"}
